test system: NCI-H295R; test: area under concentration-response curve (viability) (AUC (a.u.)); higher = less active; conditions: 48 h
Readout type: area under concentration-response curve

Here's what some known entries look like.
{"columns": ["Structure as smiles", "Readout type", "Result value"],
 "data": [
  ["Cn1c2ccccc2c2c3c(c4c5ccccc5n(CCC#N)c4c21)CNC3=O", "area under concentration-response curve", 503],
  ["CC(C)C(=O)OCC(=O)[C@@]12O[C@@H](O[C@@H]1C[C@H]3[C@@H]4CC\\C5=C\\C(=O)\\C=C/[C@]5(C)[C@H]4[C@@H](O)C[C@]23C)C6CCCCC6", "area under concentration-response curve", 531],
  ["NC(=O)[C@@H](CC1CC1)[C@@H](CCC(F)(F)F)C(=O)N[C@H]2\\N=C(C3=CC=CC=C3)/C4=CC=CC(=C4NC2=O)F", "area under concentration-response curve", 541]
]}

Next, consider the following compound.
Challenge: What does the data say about its area under concentration-response curve? Entry: FC(F)(F)c1ccc(Nc2nc(-c3c(C(F)(F)F)nc4ccccn34)cs2)cc1
Response given: 413

----------
tested on: CU-ACC2; assay: area under concentration-response curve (viability) (AUC (a.u.)); higher = less active; details: 48 h
Please go through the items and note down their area under concentration-response curve.
One number for each entry.

Here is how some molecules turned out for area under concentration-response curve.
{"columns": ["Structure as smiles", "area under concentration-response curve"],
 "data": [
  ["COc1ccc(-c2ccc3ncc4c(c3c2)n(-c2ccc(N3CCNCC3)c(C(F)(F)F)c2)c(=O)n4C)cn1", 385],
  ["Cc1cccc(-c2[nH]c(CNc3ccccc3F)nc2-c2ccc3ncnn3c2)n1", 510],
  ["O=C(NOCCO)c1ccc2cncn2c1Nc1ccc(I)cc1F", 598],
  ["C[C@@H]1C[C@@H]([C@H](O)CC2CC(=O)NC(=O)C2)C(=O)[C@@H](C)C1", 333],
  ["CCCC1(CCC)CCC2(CCN(CCCN(CC)CC)C2)CC1", 516],
  ["C=CC(=O)Nc1cc(N2CCN(CC)CC2)ccc1Nc1cc(N(C)C(=O)Nc2c(Cl)c(OC)cc(OC)c2Cl)ncn1", 566],
  ["COc1ccc2c(c1OC)C(=O)O[C@H]2[C@H]1c2c(cc3c(c2OC)OCO3)CCN1C", 608],
  ["COc1cc2ncnc(-n3nc(-c4ccccn4)nc3N)c2cc1OC", 551]
]}

Challenge: I am curious: what area under concentration-response curve value has been reported for O=C1O[C@]2(CC[C@@H](C(=O)Nc3ccn(-c4ccccc4F)n3)CC2)c2cnccc21 ?
Response given: 602

----------
test system: NCI-H295R; assay: ExcessHSA synergy score with TAK-243; higher = less synergy (negative = synergistic); conditions: combined with: TAK-243 (MLN-7243) matrix, 9-point 1:2 dilution
Give measured ExcessHSA synergy score with TAK-243 for each item. Keep answers brief.
Numbers only.

Answered examples (5):
{"columns": ["Compound", "Experimental target", "ExcessHSA synergy score with TAK-243"],
 "data": [
  ["NCCCC[C@H](NC(=O)[C@@H](NC(=O)[C@H](Cc1c[nH]c2ccccc12)NC(=O)[C@H](CCCCN)NC(=O)[C@H](CCCCN)NC(=O)[C@H](Cc1c[nH]c2ccccc12)NC(=O)[C@H](Cc1c[nH]c2ccccc12)NC(=O)[C@H](CCCCN)NC(=O)[C@@H](N)CCCCN)C(c1ccccc1)c1ccccc1)C(N)=O", "NCI-H295R", 391],
  ["C[C@H]1N=C(N(C)C)N=C(N)N1", "NCI-H295R", 50.3],
  ["C#CCC(Cc1cnc2nc(N)nc(N)c2n1)c1ccc(C(=O)N[C@@H](CCC(=O)O)C(=O)O)cc1 (some centres not stated) [Pralatrexate]", "NCI-H295R", -57.8],
  ["COc1ccc(C(=O)N2CCN(c3ccc4c(c3)CCC(=O)N4)CC2)cc1OC", "NCI-H295R", 706],
  ["O=C(NCc1ccc(S(=O)(=O)c2cccc(C(F)(F)F)c2)cc1)c1cnc2[nH]ncc2c1", "NCI-H295R", -555]
]}

State the recorded ExcessHSA synergy score with TAK-243 for every item in the following list.
1. O=C(Nc1ccnc(C(F)(F)F)c1)c1cnn(-c2cccc3c(=O)[nH]ccc23)c1C(F)(F)F
2. C[C@@H]1OCC2(CCN(c3cnc(Sc4ccnc(N)c4Cl)c(N)n3)CC2)[C@@H]1N

Response given:
1. -544
2. 322

----------
system: CU-ACC2; assay: area under concentration-response curve (viability) (AUC (a.u.)); higher = less active; settings: 48 h
Readout type: area under concentration-response curve
Answers are plain numbers.

{"columns": ["Compound", "area under concentration-response curve"],
 "data": [
  ["O=C(Nc1cccc(Nc2ncc(Br)c(NCCc3cnc[nH]3)n2)c1)N1CCCC1", 418]
]}

Here are 5 compounds. What values of area under concentration-response curve were reported for them?
1. CC(C)OC(=O)[C@H](C)N[P@](=O)(OC[C@H]1O[C@@H](N2\C=C/C(=O)NC2=O)[C@](C)(F)[C@@H]1O)OC3=CC=CC=C3
2. CCCC(CCC)C(=O)[O-]
3. CN1CCC(C1CO)C2=C(O)C=C(O)C3=C2O\C(=C/C3=O)C4=CC=CC=C4Cl (stereo unspecified)
4. CC1(C)CC\C2=C(/O1)C3=C(C=CC=C3)C(=O)C2=O
5. Cc1ccsc1C(=CCCN1CCC[C@@H](C(=O)O)C1)c1sccc1C

Response given:
1: 414; 2: 482; 3: 417; 4: 515; 5: 593

----------
system: CU-ACC2; experiment: AC50 viability; higher = less potent; settings: 48 h
For each of the compounds below, state its AC50 viability.
Give bare numbers, in µM.

Reference set (3 entries):
{"columns": ["Structure as smiles", "Unit text", "AC50 viability"],
 "data": [
  ["c1ccc(CNc2nc(NCc3ccccc3)c3ccccc3n2)cc1", "µM", 9.34],
  ["Cc1c(NC(=O)c2cc(C(N)=O)nc3cc(F)ccc23)c(C(F)(F)F)nn1Cc1ccc(C#N)cc1", "µM", 10.5],
  ["COCCOc1nc(-c2ccc(Cl)c(Cl)c2)n(-c2ccc(NC(=O)CCl)cc2)n1", "µM", 3.72]
]}

Batch: AC50 viability for all items listed.
1. Cc1cc(Nc2cc(CN3CCOCC3)c3nc(C)c(Cc4ccc(Cl)cc4F)n3n2)[nH]n1
2. COC(=O)[C@@]12OC[C@]34[C@H]([C@@H](O)[C@@H]1O)[C@@]1(C)CC(=O)C(O)=C(C)[C@@H]1C[C@H]3OC(=O)[C@H](OC(=O)/C=C(\C)C(C)C)[C@@H]24
3. COc1ccc(CNc2nc(N(CCO)CCO)nc3c2ncn3C(C)C)cc1
4. OC1=CC2=C(C(=C1)O)C(=O)\C=C(/O2)C3=CC=CC=C3
5. COCCNCc1ccc(-c2cc3nccc(Oc4ccc(NC(=S)NC(=O)Cc5ccc(F)cc5)cc4F)c3s2)nc1

Response given:
18.6
0.0417
7.42
1.66
7.42

----------
Kindly state log10 of AC50 viability for each of the entries shown.
system: CU-ACC2; test: AC50 viability; higher = less potent; conditions: 48 h
Hi team, quick reminder: these entries are log10 of AC50 viability (µM).

Examples with their reported log10 of AC50 viability follow.
{"columns": ["Molecule", "Experimental target", "log10 of AC50 viability"],
 "data": [
  ["Fc1ccc(-c2nc(-c3ccccc3F)[nH]c2-c2ccncc2)cc1", "CU-ACC2", 1.52],
  ["CC[S+](=O)([O-])N1CCN(c2ccc(Nc3ncc(C(N)=O)c(NC4CC4)n3)cc2)CC1", "CU-ACC2", 1.42],
  ["NC(=O)/C(=C/n1cnc(-c2cc(C(F)(F)F)cc(C(F)(F)F)c2)n1)c1cncnc1", "CU-ACC2", 0.77]
]}

Quick request: log10 of AC50 viability for each listed item, please.
1. COc1cc2ncn(-c3cc(OCc4ccccc4[S+](C)(=O)[O-])c(C#N)s3)c2cc1OC
2. O=C(/C=C\n1cnc(-c2cc(C(F)(F)F)cc(C(F)(F)F)c2)n1)NNc1ccccn1
3. N#CC(c1ccnc(NCCc2cccnc2)n1)c1nc2ccccc2s1 (stereo unspecified)

Response given:
[1.52, 0.12, 1.22]

Could you report log10 of AC50 viability for every entry in the following list?
1. CO[C@H]1CC[C@H](N2C(=O)CNc3ncc(-c4ccc(C(C)(C)O)nc4)nc32)CC1
2. CC(C)Nc1cc(-c2c[nH]c(C(=O)N[C@H](CO)c3cccc(Cl)c3)c2)c(Cl)cn1
3. CN\1C(=O)/C(=C(\N=C1NC[C@@H](N)CC2=CC=CC=C2)C3=CC=NC=C3)C4=CC5=C(C=CC=C5)C=C4
4. CCn1cc(-c2ccnc3[nH]c(-c4cccc(CN(C)C)c4)cc23)c(-c2ccc(NC(=O)N(C)C)cc2)n1
5. COC[C@H](NC(=O)c1cnc(C)s1)C(=O)N[C@@H](COC)C(=O)N[C@@H](Cc1ccccc1)C(=O)[C@@]1(C)CO1
6. Nc1nc(N)c(N=O)c(OCC2CCCCC2)n1
7. COC(=O)N[C@H](C(=O)N1CCC[C@H]1c1ncc(-c2ccc(-c3ccc(-c4cnc([C@@H]5CCCN5C(=O)[C@@H](NC(=O)OC)C(C)C)[nH]4)cc3)cc2)[nH]1)C(C)C
8. Cc1cc(I)ccc1Nc1c(C(=O)NOCC2CC2)cc(F)c(F)c1F

Response given:
1. 1.27
2. 1.27
3. 1.57
4. 1.27
5. -1.08
6. 1.32
7. 1.37
8. 1.27

Give one value of log10 of AC50 viability per listed molecule.
1. CNc1nccc(-c2cccnc2Oc2cc(C(=O)Nc3cccc(C(F)(F)F)c3)ccc2C)n1
2. CN1CCN(c2cc(C(=O)Nc3ccc4c(c3)-c3c(c(C(N)=O)nn3-c3ccc(F)cc3)CC4)c(Cl)cn2)CC1

Response given:
1. 1.27
2. 1.32
